# Measured On: Estrogen receptor (Homo sapiens) (UniProt P03372)
# Sequence (P03372 whole entry, looked up): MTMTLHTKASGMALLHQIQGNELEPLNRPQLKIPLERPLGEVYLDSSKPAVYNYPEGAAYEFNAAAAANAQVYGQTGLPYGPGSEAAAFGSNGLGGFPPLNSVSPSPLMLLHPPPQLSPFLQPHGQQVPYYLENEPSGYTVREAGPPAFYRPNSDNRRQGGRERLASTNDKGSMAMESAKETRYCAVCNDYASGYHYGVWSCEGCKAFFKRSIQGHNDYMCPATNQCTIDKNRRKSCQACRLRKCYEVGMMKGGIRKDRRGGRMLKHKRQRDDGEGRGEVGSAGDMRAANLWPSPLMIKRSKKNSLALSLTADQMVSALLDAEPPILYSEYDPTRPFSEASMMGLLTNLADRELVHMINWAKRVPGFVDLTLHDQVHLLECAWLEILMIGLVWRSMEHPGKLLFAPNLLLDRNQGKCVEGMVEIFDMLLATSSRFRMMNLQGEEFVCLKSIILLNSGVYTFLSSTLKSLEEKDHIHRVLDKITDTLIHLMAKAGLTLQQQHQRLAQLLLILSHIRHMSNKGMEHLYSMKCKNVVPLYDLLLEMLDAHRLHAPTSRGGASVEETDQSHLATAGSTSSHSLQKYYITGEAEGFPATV
# Test Summary: qHTS assay to identify small molecule agonists of the estrogen receptor alpha (ER-alpha) signaling pathway using the BG1 cell line (AID 743079); note: nearly all actives have a fitted effect of over 20% in size; note: potency is the fitted concentration of half-maximal effect
# Test Settings: BG1Luc4E2 cells, ERE-luciferase agonist, 22 h; series mostly up to 70.3 µM
Inconclusive results are not listed. Active and inactive are the calls of the source. Calls come from the whole dose curve; as a rule, active = well fitted activation curve with a large enough effect in the repeat runs; inconclusive = weak or mixed curves, or effect the other way; inactive = no such curve, though single readings can be large or run the other way.
Measured Parameter: Potency

CCCCCCCCO[C@@H]1O[C@H](CO)[C@@H](O)[C@H](O)[C@H]1O ... inactive
O=C1[C@H]2CCCC[C@H]2C(=O)N1CCCCN1CCN(c2nsc3ccccc23)CC1 ... inactive
C[C@H](CCC(=O)O)[C@H]1CC[C@H]2[C@@H]3CC[C@@H]4C[C@H](O)CC[C@]4(C)[C@H]3C[C@H](O)[C@]12C ... inactive
CCOc1ccc(O)cc1 ... inactive

Batch lookup, Potency per entry.
1. c1ccc(C(O[C@H]2CCCN(CCc3ccc4c(c3)OCO4)C2)c2ccccc2)cc1
2. CC(C)(C)Cl

Response:
1: inactive; 2: 64.4 µM (active)

Origin of values: PubChem BioAssay (Tox21)
